Reference for the values: ChEMBL document CHEMBL1135015

# measurement-target: Thermolysin (Bacillus thermoproteolyticus, UniProt P00800)
# Sequence (P00800 233-548 limits assumed): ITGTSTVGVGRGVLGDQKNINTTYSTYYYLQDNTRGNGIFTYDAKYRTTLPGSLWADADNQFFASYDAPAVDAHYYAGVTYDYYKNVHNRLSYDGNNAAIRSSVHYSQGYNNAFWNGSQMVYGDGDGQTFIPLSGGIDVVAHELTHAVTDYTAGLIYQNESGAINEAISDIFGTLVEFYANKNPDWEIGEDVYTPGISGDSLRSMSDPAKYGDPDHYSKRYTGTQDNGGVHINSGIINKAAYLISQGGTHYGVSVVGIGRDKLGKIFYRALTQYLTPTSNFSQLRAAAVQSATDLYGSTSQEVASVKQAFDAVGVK
readout-type: Ki (µM)
Give the value, in units of µM, as a plain number.

Task: So what does the record say about Ki for CC(C)C[C@H](CP(=O)(O)CNC(=O)OCc1ccccc1)C(=O)N[C@@H](CC(C)C)C(=O)O ?
Output: 0.011
